- study-target: T1, human LAG-3 on cells (HEK293-hLAG-3 stable cell line) (human, UniProt P18627 23-525)
- T1 sequence: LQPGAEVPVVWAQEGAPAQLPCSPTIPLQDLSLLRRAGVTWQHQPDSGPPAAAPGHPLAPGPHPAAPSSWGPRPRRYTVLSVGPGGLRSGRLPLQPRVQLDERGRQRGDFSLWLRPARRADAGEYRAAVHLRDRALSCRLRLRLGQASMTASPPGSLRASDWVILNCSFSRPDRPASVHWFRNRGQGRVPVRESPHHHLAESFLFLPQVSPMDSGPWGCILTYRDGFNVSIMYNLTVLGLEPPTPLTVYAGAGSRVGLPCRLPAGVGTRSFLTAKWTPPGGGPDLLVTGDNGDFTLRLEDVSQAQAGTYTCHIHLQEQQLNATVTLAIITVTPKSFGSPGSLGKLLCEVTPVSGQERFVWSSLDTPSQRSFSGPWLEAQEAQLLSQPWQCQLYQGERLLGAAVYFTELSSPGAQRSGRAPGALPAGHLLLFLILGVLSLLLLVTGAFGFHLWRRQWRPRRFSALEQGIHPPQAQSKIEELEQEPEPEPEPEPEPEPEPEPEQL
- assay-explanation: FACS, HEK293-hLAG-3, antibody 8 nM
assay-metric: Mean fluorescence intensity
Numbers only.

Before answering, review these 5 worked examples.
binder	reported-result
405B8H3-11 humanized antibody (antibody, V domains shown) VH: QVQLVQSGAEVKKPGASVKVSCKASGYTFTDYEMHWVRQAPGQGLEWIGATDPETGNSAYNQKFKGRATMTADKSTSTAYMELSSLRSEDTAVYYCISTGWNDWGQGTTVTVSS VL: DIKMTQSPSSLSASVGDRVTITCKASQDINSYLSWFQQKPGKSPKSLIYRADRLLDGVPSRFSGSGSGQDYTLTISSLQPEDFATYYCLQYDEFPYTFGQGTKLEIK	220
405B8H3-5 humanized antibody (antibody, V domains shown) VH: QVQLVQSGAEVKKPGASVKVSCKASGYTFTDYEMHWVRQAPGQGLEWMGATDPETGNSAYNQKFKGRVTMTRDTSTSTVYMELSSLRSEDTAVYYCISTGWNDWGQGTTVTVSS VL: DIQMTQSPSSLSASVGDRVTITCKASQDINSYLSWFQQKPGKAPKSLIYRADRLLDGVPSRFSGSGSGQDYTLTISSLQPEDFATYYCLQYDEFPYTFGQGTKLEIK	243
405B8H3-10 humanized antibody (antibody, V domains shown) VH: QVQLVQSGAEVKKPGASVKVSCKASGYTFTDYEMHWVRQAPGQGLEWMGATDPETGNSAYNQKFKGRVTMTADKSTSTVYMELSSLRSEDTAVYYCISTGWNDWGQGTTVTVSS VL: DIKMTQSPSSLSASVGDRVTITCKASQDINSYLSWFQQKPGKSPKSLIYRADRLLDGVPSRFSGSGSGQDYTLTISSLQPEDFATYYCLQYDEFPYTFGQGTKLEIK	229
405B8H3-7 humanized antibody (antibody, V domains shown) VH: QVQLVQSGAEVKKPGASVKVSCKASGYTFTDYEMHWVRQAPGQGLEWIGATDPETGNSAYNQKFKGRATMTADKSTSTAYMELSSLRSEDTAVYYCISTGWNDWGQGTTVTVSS VL: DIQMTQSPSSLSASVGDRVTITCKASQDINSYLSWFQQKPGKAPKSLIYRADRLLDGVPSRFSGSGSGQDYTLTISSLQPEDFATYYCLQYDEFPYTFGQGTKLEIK	230
405B8H3-2 humanized antibody (antibody, V domains shown) VH: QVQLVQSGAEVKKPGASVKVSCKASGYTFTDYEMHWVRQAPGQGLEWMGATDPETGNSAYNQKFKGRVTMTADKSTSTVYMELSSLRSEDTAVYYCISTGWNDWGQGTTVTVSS VL: DIQMTQSPSSLSASVGDRVTITCKASQDINSYLSWFQQKPGKAPKSLIYRADRLLDGVPSRFSGSGSGTDFTLTISSLQPEDFATYYCLQYDEFPYTFGQGTKLEIK	245

For each of the items listed, what is its Mean fluorescence intensity?
1. 405B8H3-3 humanized antibody (antibody, V domains shown) VH: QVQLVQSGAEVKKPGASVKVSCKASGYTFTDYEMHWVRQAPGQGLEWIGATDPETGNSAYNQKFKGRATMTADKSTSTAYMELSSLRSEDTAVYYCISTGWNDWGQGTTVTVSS VL: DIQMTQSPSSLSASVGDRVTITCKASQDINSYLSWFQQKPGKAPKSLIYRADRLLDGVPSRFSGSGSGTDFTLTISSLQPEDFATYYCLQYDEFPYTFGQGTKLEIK
2. 405B8H3-8 humanized antibody (antibody, V domains shown) VH: QVQLVQSGAEVKKPGASVKVSCKASGYTFTDYEMHWVKQAPGQGLEWIGATDPETGNSAYNQKFKGKATMTADKSTSTAYMELSSLRSEDTAVYYCISTGWNDWGQGTTVTVSS VL: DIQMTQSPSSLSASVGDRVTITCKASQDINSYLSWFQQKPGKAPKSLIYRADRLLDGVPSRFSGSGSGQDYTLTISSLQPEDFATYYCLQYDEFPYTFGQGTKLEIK
3. 405B8H3-4 humanized antibody (antibody, V domains shown) VH: QVQLVQSGAEVKKPGASVKVSCKASGYTFTDYEMHWVKQAPGQGLEWIGATDPETGNSAYNQKFKGKATMTADKSTSTAYMELSSLRSEDTAVYYCISTGWNDWGQGTTVTVSS VL: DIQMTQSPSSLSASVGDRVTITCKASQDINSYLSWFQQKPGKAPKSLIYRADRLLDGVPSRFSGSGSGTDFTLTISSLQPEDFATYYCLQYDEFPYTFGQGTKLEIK
4. 405B8H3-12 humanized antibody (antibody, V domains shown) VH: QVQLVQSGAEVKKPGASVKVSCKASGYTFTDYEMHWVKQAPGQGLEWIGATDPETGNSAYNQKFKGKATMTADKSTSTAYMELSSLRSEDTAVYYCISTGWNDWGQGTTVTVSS VL: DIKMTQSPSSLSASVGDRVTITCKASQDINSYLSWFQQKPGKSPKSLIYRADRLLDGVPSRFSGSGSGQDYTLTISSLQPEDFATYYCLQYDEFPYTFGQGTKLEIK

[230, 213, 217, 207]

Recorded result, 405B8H3-1 humanized antibody (antibody, V domains shown) VH: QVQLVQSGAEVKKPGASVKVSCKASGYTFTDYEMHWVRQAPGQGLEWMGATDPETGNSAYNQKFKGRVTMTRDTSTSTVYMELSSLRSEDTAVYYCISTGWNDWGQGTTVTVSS VL: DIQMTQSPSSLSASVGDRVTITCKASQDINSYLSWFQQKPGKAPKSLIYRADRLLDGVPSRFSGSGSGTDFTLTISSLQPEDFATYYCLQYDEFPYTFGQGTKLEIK , Mean fluorescence intensity: 244
